The values you see were collected from patent US20220356245A1.

Can you tell me EC50 for the items I'm about to list?
# target-of-assay: T1, human CD47 (hCD47) expressed on cells (human, UniProt Q08722 19-323)
# T1 construct: Transfected CHO cells or endogenous CD47 of human cells; also called CHO-hCD47; CD47 on Raji cells
# run-description: flow cytometry, Raji cells
Give bare numbers, in µg/mL.

stdin: Check the records and state EC50 for h20-H3-L2Y (candidate 20.27), hIgG4-S228P (antibody, V domains shown, also called H20-VH3-VL2,Y) VH: QVQLVQSGAEVKKPGASVKVSCKASGYSFTDYYINWVRQAPGQGLEWMGRIYPGIGNTYYNKKFKGRVTVTRDTSISTAHMELSSLRSDDTAVYYCARGHYGRGMDYWGQGTAVTVSS VL: DIVMTQSPDSLAVSLGERATINCKSSQSLLNSIDQKNYLAWYQQKPGQPPKLLIYYASTKESGVPDRFSGSGSGTDFTLTISSLQAEDVAVYYCQQHYSTPWTFGGGTKVEIKR
stdout: 0.0854

Now look at this one.
stdin: Check the records and state EC50 for h20-H3-L3Y (candidate 20.28), hIgG4-S228P (antibody, V domains shown, also called H20-VH3-VL3,Y) VH: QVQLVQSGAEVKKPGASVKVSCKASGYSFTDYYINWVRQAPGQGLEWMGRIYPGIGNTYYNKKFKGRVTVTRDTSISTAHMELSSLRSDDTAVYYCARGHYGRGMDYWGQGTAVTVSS VL: EIVLTQSPDSLAVSLGERATINCKSSQSLLNSIDQKNYLAWYQQKAGQSPKLLIYYASTKESGVPDRFSGSGSGTDFTLTIDSLQAEDVAVYYCQQHYSTPWTFGGGTKVEIKR
stdout: 0.117
